systemUnderTest: HCV NS5B RdRp genotype 1b (Hepatitis C virus genotype 1b)
Construct: The protein was expressed with an 18 amino acid C-terminal truncation to enhance the solubility
protocolNotes: HCV NS5B RdRp enzyme assay
appliedConditions: IC50, HCV RdRp genotype 1b enzyme, C-terminal 18 aa truncated; average of single point IC50 values
reportedEndpoint: log10 IC50 (log10 of the value in nM)
All values: log10 IC50 [nM].

Lab note: need log10 IC50 with HCV NS5B RdRp genotype 1b (Hepatitis C virus genotype 1b) for entry CC(NC(=O)c1ccc(-c2cccc(O)c2)c(COc2ccc(-c3nc4cc(-c5nnn[nH]5)ccc4n3C3CCCCC3)cc2)c1)C(=O)OC(C)(C)C (stereo not shown) [Example 71] , please look it up.
2.72

Lab note: need log10 IC50 with HCV NS5B RdRp genotype 1b (Hepatitis C virus genotype 1b) for entry O=C(NC(Cc1ccc(O)cc1)C(=O)O)c1ccc(-c2ccsc2)c(COc2ccc(-c3nc4cc(-c5nnn[nH]5)ccc4n3C3CCCCC3)cc2)c1 (stereo not shown) [Example 129] , please look it up.
2.46

Lab note: need log10 IC50 with HCV NS5B RdRp genotype 1b (Hepatitis C virus genotype 1b) for entry O=C(O)c1ccc(-c2cc3ccccc3s2)c(COc2ccc(-c3nc4cc(-c5nnn[nH]5)ccc4n3C3CCCCC3)cc2)c1 [Example 119] , please look it up.
1.48

----------
# reported IC50; entries follow
systemUnderTest: HCV NS5B RdRp genotype 1b (Hepatitis C virus genotype 1b, UniProt Q9WMX2)
Construct: The protein was expressed with an 18 amino acid C-terminal truncation to enhance the solubility; made in house; host or cells: E. coli BL21(DE3)
Sequence (Q9WMX2 2420-2992): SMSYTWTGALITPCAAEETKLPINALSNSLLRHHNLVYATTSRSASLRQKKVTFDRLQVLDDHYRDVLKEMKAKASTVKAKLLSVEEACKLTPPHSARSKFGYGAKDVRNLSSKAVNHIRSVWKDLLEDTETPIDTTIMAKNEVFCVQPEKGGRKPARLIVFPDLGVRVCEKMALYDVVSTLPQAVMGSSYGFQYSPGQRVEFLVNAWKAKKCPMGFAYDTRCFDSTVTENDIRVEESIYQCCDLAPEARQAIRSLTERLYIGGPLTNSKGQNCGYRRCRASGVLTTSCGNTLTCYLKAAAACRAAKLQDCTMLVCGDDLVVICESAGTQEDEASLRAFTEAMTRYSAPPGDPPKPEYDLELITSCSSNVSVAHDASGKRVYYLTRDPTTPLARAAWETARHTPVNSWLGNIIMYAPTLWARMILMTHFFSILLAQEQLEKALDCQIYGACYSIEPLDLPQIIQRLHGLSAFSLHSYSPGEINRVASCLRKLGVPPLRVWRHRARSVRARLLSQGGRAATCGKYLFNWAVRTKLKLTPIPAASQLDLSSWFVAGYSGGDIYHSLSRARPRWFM
protocolNotes: HCV NS5B RdRp enzyme assay
Type: biochemical
appliedConditions: IC50, HCV RdRp genotype 1b enzyme, C-terminal 18 aa truncated; average of single point IC50 values
Response body: numeric value in nM, unit text excluded.

Past entries and their recorded results:
What value of IC50 has been reported for the following compound? COc1ccc(-c2ccc(C(=O)O)cc2COc2ccc(-c3nc4cc(-c5nnn[nH]5)ccc4n3C3CCCCC3)cc2)cc1OC
80

What value of IC50 has been reported for the following compound? O=C(c1ccc(-c2ccsc2)c(COc2ccc(-c3nc4cc(-c5nnn[nH]5)ccc4n3C3CCCCC3)cc2)c1)N1CCCC1
370

What value of IC50 has been reported for the following compound? O=C(O)c1ccc(C(=O)NS(=O)(=O)c2ccc3c(c2)nc(-c2ccc(OCc4ccccc4)cc2)n3C2CCCCC2)cc1
1520

New cases:
What value of IC50 has been reported for the following compound? O=C(O)C=Cc1ccc(-c2ccc(C(=O)O)cc2COc2ccc(-c3nc4cc(-c5nnn[nH]5)ccc4n3C3CCCCC3)cc2)cc1
50

What value of IC50 has been reported for the following compound? O=C(c1ccc(-c2cccc(O)c2)c(COc2ccc(-c3nc4cc(-c5nnn[nH]5)ccc4n3C3CCCCC3)cc2)c1)N(CCO)CCO
500

What value of IC50 has been reported for the following compound? O=C(NCCCO)c1ccc(-c2ccc(F)c(Cl)c2)c(COc2ccc(-c3nc4cc(-c5nnn[nH]5)ccc4n3C3CCCCC3)cc2)c1
690

----------
systemUnderTest: HCV NS5B RdRp genotype 1b (Hepatitis C virus genotype 1b)
Construct: The protein was expressed with an 18 amino acid C-terminal truncation to enhance the solubility
protocolNotes: HCV NS5B RdRp enzyme assay
appliedConditions: IC50, HCV RdRp genotype 1b enzyme, C-terminal 18 aa truncated; average of single point IC50 values
# reported IC50; entries follow
Response body: numeric value in nM, unit text excluded.

Past entries and their recorded results:
What value of IC50 has been reported for the following compound? NC(=O)CCNC(=O)c1ccc(-c2cccc(O)c2)c(COc2ccc(-c3nc4cc(-c5nnn[nH]5)ccc4n3C3CCCCC3)cc2)c1
200

What value of IC50 has been reported for the following compound? O=C(O)c1ccc(-c2ccccc2-c2ccccc2)c(COc2ccc(-c3nc4cc(-c5nnn[nH]5)ccc4n3C3CCCCC3)cc2)c1
250

What value of IC50 has been reported for the following compound? COc1ccc(-c2ccc(C(=O)N3CCOCC3)cc2COc2ccc(-c3nc4cc(-c5nnn[nH]5)ccc4n3C3CCCCC3)cc2)cc1OC
470

What value of IC50 has been reported for the following compound? COc1ccc(-c2ccc(C(=O)NC(C)C(=O)OC(C)(C)C)cc2COc2ccc(-c3nc4cc(-c5nnn[nH]5)ccc4n3C3CCCCC3)cc2)cc1OC (stereo not shown)
2100

What value of IC50 has been reported for the following compound? CC(C)(C)OC(=O)C(Cc1cc2ccccc2[nH]1)NC(=O)c1ccc(-c2ccc(F)c(Cl)c2)c(COc2ccc(-c3nc4cc(-c5nnn[nH]5)ccc4n3C3CCCCC3)cc2)c1 (stereo not shown)
2300

What value of IC50 has been reported for the following compound? CC(C)(C)OC(=O)C(Cc1ccc(O)cc1)NC(=O)c1ccc(-c2ccsc2)c(COc2ccc(-c3nc4cc(-c5nnn[nH]5)ccc4n3C3CCCCC3)cc2)c1 (stereo not shown)
2150

What value of IC50 has been reported for the following compound? CN1CCN(C(=O)c2ccc(-c3ccsc3)c(COc3ccc(-c4nc5cc(-c6nnn[nH]6)ccc5n4C4CCCCC4)cc3)c2)CC1
830

What value of IC50 has been reported for the following compound? O=C(O)c1ccc(-c2cc3ccccc3o2)c(COc2ccc(-c3nc4cc(-c5nnn[nH]5)ccc4n3C3CCCCC3)cc2)c1
170

New cases:
What value of IC50 has been reported for the following compound? O=C(O)c1ccc(-c2cccc3cccnc23)c(COc2ccc(-c3nc4cc(-c5nnn[nH]5)ccc4n3C3CCCCC3)cc2)c1
440

What value of IC50 has been reported for the following compound? N#Cc1ccc(-c2ccc(C(=O)O)cc2COc2ccc(-c3nc4cc(-c5nnn[nH]5)ccc4n3C3CCCCC3)cc2)cc1
40

What value of IC50 has been reported for the following compound? Cc1ccc(-c2ccc(C(=O)O)cc2COc2ccc(-c3nc4cc(-c5nnn[nH]5)ccc4n3C3CCCCC3)cc2)cc1N
240

What value of IC50 has been reported for the following compound? O=C(NCCCO)c1ccc(-c2ccsc2)c(COc2ccc(-c3nc4cc(-c5nnn[nH]5)ccc4n3C3CCCCC3)cc2)c1
700

What value of IC50 has been reported for the following compound? O=C(O)c1ccc(-c2ccc3c(c2)OCO3)c(COc2ccc(-c3nc4cc(-c5nnn[nH]5)ccc4n3C3CCCCC3)cc2)c1
70

What value of IC50 has been reported for the following compound? CC(NC(=O)c1ccc(-c2ccc(F)c(Cl)c2)c(COc2ccc(-c3nc4cc(-c5nnn[nH]5)ccc4n3C3CCCCC3)cc2)c1)C(=O)OC(C)(C)C (stereo not shown)
1300

What value of IC50 has been reported for the following compound? NC(=O)CCNC(=O)c1ccc(-c2ccc(F)c(Cl)c2)c(COc2ccc(-c3nc4cc(-c5nnn[nH]5)ccc4n3C3CCCCC3)cc2)c1
920

What value of IC50 has been reported for the following compound? O=C(c1ccc(-c2ccc(Cl)cc2)c(COc2ccc(-c3nc4cc(-c5nnn[nH]5)ccc4n3C3CCCCC3)cc2)c1)N1CCC(O)CC1
320

What value of IC50 has been reported for the following compound? O=C(NCCCO)c1ccc(-c2cccc(O)c2)c(COc2ccc(-c3nc4cc(-c5nnn[nH]5)ccc4n3C3CCCCC3)cc2)c1
790

What value of IC50 has been reported for the following compound? O=C(O)c1ccc(-c2cccc(O)c2)c(COc2ccc(-c3nc4cc(-c5nnn[nH]5)ccc4n3C3CCCCC3)cc2)c1
40

What value of IC50 has been reported for the following compound? O=Cc1ccoc1-c1ccc(C(=O)O)cc1COc1ccc(-c2nc3cc(-c4nnn[nH]4)ccc3n2C2CCCCC2)cc1
670

----------
systemUnderTest: HCV NS5B RdRp genotype 1b (Hepatitis C virus genotype 1b, UniProt Q9WMX2)
Construct: The protein was expressed with an 18 amino acid C-terminal truncation to enhance the solubility
protocolNotes: HCV NS5B RdRp enzyme assay
appliedConditions: IC50, HCV RdRp genotype 1b enzyme, C-terminal 18 aa truncated; average of single point IC50 values
reportedEndpoint: pIC50
Please note pIC50 is a logarithmic value: minus log10 of concentration in mol/L. Answer with that number alone.

Past entries and their recorded results:
Lab note: need pIC50 with HCV NS5B RdRp genotype 1b (Hepatitis C virus genotype 1b, UniProt Q9WMX2) for entry O=C(O)c1ccc(-c2ccco2)c(COc2ccc(-c3nc4cc(-c5nnn[nH]5)ccc4n3C3CCCCC3)cc2)c1 [Example 117] , please look it up.
6.54

Lab note: need pIC50 with HCV NS5B RdRp genotype 1b (Hepatitis C virus genotype 1b, UniProt Q9WMX2) for entry O=C(c1ccc(-c2cccc(O)c2)c(COc2ccc(-c3nc4cc(-c5nnn[nH]5)ccc4n3C3CCCCC3)cc2)c1)N1CCC(O)CC1 [Example 69] , please look it up.
6.18

New cases:
Lab note: need pIC50 with HCV NS5B RdRp genotype 1b (Hepatitis C virus genotype 1b, UniProt Q9WMX2) for entry COc1ccc(-c2ccc(C(=O)NC(Cc3ccc(O)cc3)C(=O)OC(C)(C)C)cc2COc2ccc(-c3nc4cc(-c5nnn[nH]5)ccc4n3C3CCCCC3)cc2)cc1OC (stereo not shown) [Example 95] , please look it up.
5.85

Lab note: need pIC50 with HCV NS5B RdRp genotype 1b (Hepatitis C virus genotype 1b, UniProt Q9WMX2) for entry CNC(=O)c1ccc(-c2cccc(O)c2)c(COc2ccc(-c3nc4cc(-c5nnn[nH]5)ccc4n3C3CCCCC3)cc2)c1 [Example 68] , please look it up.
6.27

Lab note: need pIC50 with HCV NS5B RdRp genotype 1b (Hepatitis C virus genotype 1b, UniProt Q9WMX2) for entry O=C(c1ccc(-c2cccc(O)c2)c(COc2ccc(-c3nc4cc(-c5nnn[nH]5)ccc4n3C3CCCCC3)cc2)c1)N1CCOCC1 [Example 65] , please look it up.
5.77

Lab note: need pIC50 with HCV NS5B RdRp genotype 1b (Hepatitis C virus genotype 1b, UniProt Q9WMX2) for entry O=C(O)c1ccc(-c2ccc(F)c(Cl)c2)c(COc2ccc(-c3nc4cc(-c5nnn[nH]5)ccc4n3C3CCCCC3)cc2)c1 [Example 30] , please look it up.
7.40

Lab note: need pIC50 with HCV NS5B RdRp genotype 1b (Hepatitis C virus genotype 1b, UniProt Q9WMX2) for entry NC(=O)CCNC(=O)c1ccc(-c2ccsc2)c(COc2ccc(-c3nc4cc(-c5nnn[nH]5)ccc4n3C3CCCCC3)cc2)c1 [Example 131] , please look it up.
6.64

Lab note: need pIC50 with HCV NS5B RdRp genotype 1b (Hepatitis C virus genotype 1b, UniProt Q9WMX2) for entry CNC(=O)c1ccc(-c2ccc(C#N)cc2)c(COc2ccc(-c3nc4cc(-c5nnn[nH]5)ccc4n3C3CCCCC3)cc2)c1 [Example 49] , please look it up.
7.10

Lab note: need pIC50 with HCV NS5B RdRp genotype 1b (Hepatitis C virus genotype 1b, UniProt Q9WMX2) for entry CC(C)(C)OC(=O)CNC(=O)c1ccc(-c2cccc(O)c2)c(COc2ccc(-c3nc4cc(-c5nnn[nH]5)ccc4n3C3CCCCC3)cc2)c1 [Example 72] , please look it up.
6.03

Lab note: need pIC50 with HCV NS5B RdRp genotype 1b (Hepatitis C virus genotype 1b, UniProt Q9WMX2) for entry COc1ccc(-c2ccc(C(=O)NCC(=O)O)cc2COc2ccc(-c3nc4cc(-c5nnn[nH]5)ccc4n3C3CCCCC3)cc2)cc1OC [Example 98] , please look it up.
6.68

Lab note: need pIC50 with HCV NS5B RdRp genotype 1b (Hepatitis C virus genotype 1b, UniProt Q9WMX2) for entry O=C(c1ccc(-c2ccsc2)c(COc2ccc(-c3nc4cc(-c5nnn[nH]5)ccc4n3C3CCCCC3)cc2)c1)N1CCC(O)CC1 [Example 137] , please look it up.
5.89

Lab note: need pIC50 with HCV NS5B RdRp genotype 1b (Hepatitis C virus genotype 1b, UniProt Q9WMX2) for entry O=c1[nH]c(-c2ccc3c(c2)nc(-c2ccc(OCc4ccccc4)cc2)n3C2CCCCC2)no1 [Example 10] , please look it up.
6.07

Lab note: need pIC50 with HCV NS5B RdRp genotype 1b (Hepatitis C virus genotype 1b, UniProt Q9WMX2) for entry COc1ccc(-c2ccc(Cl)cc2)c(COc2ccc(-c3nc4cc(-c5nnn[nH]5)ccc4n3C3CCCCC3)cc2)c1 [Example 3] , please look it up.
6.85
